Cited source for all entries: PubChem BioAssay AID588692

Provide the recorded reporter increase for the entries that follow.
# PROTOCOL_NOTES: D54 reporter luminescence gain compounds – D54 ERlucT cells, set 2, N-linked glycosylation inhibitor project, primary screen (AID 588692);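 also: luciferase carries N-glycosylation sites so blocking glycosylation raises the light; 0% = median of neutral control wells and 100% = median of 100 nM tunicamycin wells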
# MEASUREMENT_CONTEXT: D54 ERlucT glycosylation luciferase reporter, 24 h; at 12.5 µM; stronger effect = higher value; percent of 100 nM tunicamycin response
Hit rate of the full screen: of about 360,000 compounds, about 830 (0.23%) were called active. This excerpt belongs to a sample that is enriched for actives.
Give bare numbers, in %.

// below: answered compounds
O=C(/C=C/c1ccc(Cl)cc1)N1CCN(c2ccccc2[N+](=O)[O-])CC1 :: 0.213
O=c1ccc2cc(S(=O)(=O)NCCCc3ccccc3)ccc2[nH]1 :: -0.159

Batch request: reporter increase for each of the following compounds.
1. COc1ccc(C)cc1NC(=O)CSc1cccc[n+]1[O-]
2. Cc1cccc(C)c1OCCN1CCOCC1
3. O=C(CN1C(=O)NC2(CCc3ccccc32)C1=O)NC1CCCCC1 (centres undefined)
4. OCc1ccc(-c2ccccc2)c(-c2ccccc2)c1
5. c1ccc2cc3c(NCCN4CCOCC4)ccnc3cc2c1
6. Cn1c(=O)n(C)c2cc(C(=O)Nc3ccc4c(c3)OCO4)ccc21
7. CC(C)CCNC(=O)Cn1c(=O)oc2cc(S(=O)(=O)N3CC(C)CC(C)C3)ccc21 (centres undefined)

1. 1.45
2. -0.152
3. 3.09
4. 2.12
5. 102
6. 70.1
7. 114

Batch request: reporter increase for each of the following compounds.
1. C1CC1Cc1noc(CN2CCN(CC3CC3)CC2)n1
2. CCOC(=O)c1cc2cc(-c3c(C(=O)OCC)oc4cc(O)cc(O)c4c3=O)ccc2o1
3. COc1ccccc1CNC(=O)CNC(=O)c1cn(-c2ccccc2OC)c(=O)c2ccccc12
4. CCCNC(=O)C1(C)CCN(Cc2ccc(Cl)c(Cl)c2)C1 (centres undefined)
5. CSc1cc(C)n(-c2ccccc2C)c(=S)c1C(C)=O
6. Cc1[nH]n(C(N)=S)c(=O)c1N=Nc1ccc(Cl)cc1Cl
7. O=C(c1ccc(N2CCCC2=O)cc1)N1CCN(c2ccc(C(F)(F)F)cc2[N+](=O)[O-])CC1
8. CCOC(=O)[C@H]1[C@H]2COc3ccc(OC)cc3[C@@H]2N2C(=O)c3ccc(F)cc3NC(=O)[C@@]12C

1. -0.901
2. -0.142
3. 1.89
4. 0.635
5. -0.347
6. -0.0505
7. -1.99
8. 7.58

Batch request: reporter increase for each of the following compounds.
1. CCN(CC(=O)Nc1c(F)cccc1F)C(=O)C1CCC1
2. CN(CC1CCCO1)S(=O)(=O)c1ccc(C(=O)Nc2ccc([N+](=O)[O-])cc2)cc1 (centres undefined)
3. C[C@@H]1CN([C@@H](C)CO)C(=O)c2cc(Br)cnc2O[C@@H]1CN(C)C(=O)C1CCCCC1

1: 0.369; 2: -5.35; 3: -0.264

Batch request: reporter increase for each of the following compounds.
1. O=c1c2cc(-c3ccccc3)sc2nc2n1N=C(c1cccs1)CS2
2. CC(=O)Nc1ccc(SCC(=O)NC(=O)c2ccc(Cl)cc2)cc1
3. Cc1ccc2c(c1)NC(=O)[C@@]1(C)[C@@H](c3ccccc3)[C@H]3COc4ccc(Cl)cc4[C@@H]3N1C2=O
4. Cc1cc(S(=O)(=O)c2cc3ccc(O)c(C)c3oc2=O)ccc1F
5. Cc1cccc(N2C(=O)N3[C@H](c4ccc(F)cc4)[C@@H]4C(=O)N(C5CCCCC5)C(=O)[C@@H]4[C@]3(Cc3ccccc3)C2=O)c1

-9.8
-6.32
19.6
1.14
78.2

Batch request: reporter increase for each of the following compounds.
1. Cc1ccc(S(=O)(=O)N2CCOCC2)cc1NC(=O)c1ccncc1
2. CCN1C(=O)CS/C1=N\c1nccs1
3. COc1ccc2c(c1)[C@H]1[C@H](CO2)[C@H](c2ccccc2)[C@]2(C)C(=O)Nc3cc(F)c(F)cc3C(=O)N12

[0.492, 0.352, 42]

Batch request: reporter increase for each of the following compounds.
1. Cc1ccc(C)c(NC(=O)CCC(=O)N/N=C2/CC(=O)CC(C)(C)C2)c1
2. O=C(NCCN1CCOCC1)c1cc(Sc2cccc(Cl)c2)nc2ccccc12
3. Cn1ccc(=Nc2ccc(NC(=O)c3ccc(N=c4ccn(C)c5ccc([N+](=O)[O-])cc45)cc3)cc2)cc1
4. CC(C)c1ccc(NC(=O)CCN2C(=O)c3ccc([N+](=O)[O-])cc3C2=O)cc1
5. CC1CCCCN1C(=O)Cn1c(=O)oc2cc(S(=O)(=O)N3CCCCC3)ccc21 (centres undefined)
6. COc1ccc([C@@H]2[C@@H]3C(=O)N(C(C)(C)C)C(=O)[C@@H]3[C@]3(Cc4ccccc4)C(=O)N(c4cccc(Br)c4)C(=O)N23)cc1

1: 0.203; 2: -2.52; 3: 32.9; 4: 1.26; 5: -0.145; 6: 36.7

Batch request: reporter increase for each of the following compounds.
1. O=C1[C@H]2[C@@H](c3ccc(F)cc3)N3C(=O)N(c4ccc(C(F)(F)F)cc4)C(=O)[C@@]3(Cc3ccccc3)[C@H]2C(=O)N1C1CCCCC1
2. CN(C)c1ccc(S(=O)(=O)NCC(=O)NCC2CCCCC2)cc1[N+](=O)[O-]
3. C[C@@H]1C[C@@H]2O[C@H]2/C=C\C=C\C(=O)Cc2c(Cl)c(O)cc(O)c2C(=O)O1

1: -7.93; 2: -0.935; 3: -14.3

Batch request: reporter increase for each of the following compounds.
1. N#Cc1ccc(C2=CC(=O)C[C@H](c3ccc(Cl)cc3)C2)cc1
2. O=C(CCN1C(=O)C2CCCCC2C1=O)Nc1ccc(OC(F)F)cc1 (centres undefined)

[1.89, 0.177]
